SYSTEM TESTED: T1, ZFP SBS#390 (synthetic)
T1 chain: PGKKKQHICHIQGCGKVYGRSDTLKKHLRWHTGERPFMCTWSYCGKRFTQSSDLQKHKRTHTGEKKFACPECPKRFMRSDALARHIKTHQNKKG
ASSAY OVERVIEW: EMSA
RUN PARAMETERS: tags: MBP fusion

>  <BINDER>
GTGGCAGCGG (dsDNA) DNA 1: GTGGCAGCGG DNA 2: CCGCTGCCAC

>  <UNIT LABEL>
nM

>  <Kd>
20

$$$$

Data provenance: patent US20030068675
